Assignment: determine reported pEC50 for the given compounds.
target: JAK3 (Homo sapiens, UniProt P52333); construct: All four purified enzymes contain only the catalytic domain; His (N); assay: JAK kinase assay (HTRF, phosphorylation of synthetic peptide), JAK3; conditions: catalytic domain, ATP at Km (2 μM); read-out: JAK3 kinase inhibitory activity (EC50)
Sequence (P52333 822-1111 limits assumed): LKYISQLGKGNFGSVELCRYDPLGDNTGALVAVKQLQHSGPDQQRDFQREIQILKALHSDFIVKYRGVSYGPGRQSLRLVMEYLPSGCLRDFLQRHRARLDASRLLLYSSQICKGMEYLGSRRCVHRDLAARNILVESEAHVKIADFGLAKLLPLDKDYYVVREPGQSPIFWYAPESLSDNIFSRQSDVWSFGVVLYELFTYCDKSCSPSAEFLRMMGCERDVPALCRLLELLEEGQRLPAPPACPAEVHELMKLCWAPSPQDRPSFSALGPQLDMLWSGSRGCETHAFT
pEC50: −log10 of the molar value.

# batch size: 4; output pEC50 per entry
1. CC(C#N)N(C1COC1)S(=O)(=O)N1CCN(c2ncnc3[nH]ccc23)CC12CC2 (stereo not shown) [Example 117]
2. O=S(=O)(NCc1ccccc1)N1CCN(c2ncnc3[nH]ccc23)CC12CC2 [Example 147]
3. CN(Cc1ccccc1C#N)S(=O)(=O)N1CCN(c2ncnc3[nH]ccc23)CC12CC2 [Example 14]
4. CCOC(=O)CN(CCc1ccccc1)S(=O)(=O)N1CCN(c2ncnc3[nH]ccc23)CC12CC2 [Example 46]

Found:
["> 7.00", "6.30 to 7.00", "6.30 to 7.00", "6.30 to 7.00"]
